# assay.text: Single intravenous dose pharmacokinetic study
# condition: released payload 14; male ICR mice, 5 mg/kg intravenous of conjugate
I'd be grateful if you could share measured AUC(0-24 hr) Drug for these entries.
State just the number; it will be interpreted in ng·h/mL.

Query: Any idea what its AUC(0-24 hr) Drug is? The compound is COc1cc2cc(c1Cl)N(C)C(=O)C[C@H](OC(=O)[C@H](C)N(C)C(=O)CCSSc1ccc(C(=O)NCCCCOc3cc(CN(Cc4ccccn4)Cc4ccccn4)cc(CN(Cc4ccccn4)Cc4ccccn4)c3)cc1)[C@]1(C)O[C@H]1[C@H](C)[C@@H]1C[C@@](O)(NC(=O)O1)[C@H](OC)/C=C\C=C(/C)C2.O=[N+]([O-])[O-].O=[N+]([O-])[O-].O=[N+]([O-])[O-].O=[N+]([O-])[O-].[Zn+2].[Zn+2] [Compound 27b]
Result: 216

Query: What do you get for "CCCCCC(=O)Nc1cccc(CN(Cc2cc(CN(Cc3ccccn3)Cc3cccc(NC(=O)CCCCC)n3)cc(OCCCCNC(=O)CCSSCCC(=O)N(C)[C@@H](C)C(=O)O[C@H]3CC(=O)N(C)c4cc(cc(OC)c4Cl)C/C(C)=C/C=C\[C@@H](OC)[C@@]4(O)C[C@H](OC(=O)N4)[C@@H](C)[C@@H]4O[C@@]34C)c2)Cc2ccccn2)n1.O=[N+]([O-])[O-].O=[N+]([O-])[O-].O=[N+]([O-])[O-].O=[N+]([O-])[O-].[Zn+2].[Zn+2]" ?
Result: 270

Query: What do you get for COc1cc2cc(c1Cl)N(C)C(=O)CC(OC(=O)C(C)N(C)C(=O)CCSSCCC(=O)NCCCCOc1cc(CN(Cc3ccccn3)Cc3ccccn3)cc(CN(Cc3ccccn3)Cc3ccccn3)c1)C1(C)OC1C(C)C1CC(O)(NC(=O)O1)C(OC)C=CC=C(C)C2.O=[N+]([O-])[O-].O=[N+]([O-])[O-].O=[N+]([O-])[O-].O=[N+]([O-])[O-].[Zn+2].[Zn+2] (stereo not drawn) [Compound 27a] ?
Result: 462

Query: What do you get for "CCCCCC(=O)Nc1cccc(CN(Cc2cc(CN(Cc3ccccn3)Cc3cccc(NC(=O)CCCCC)n3)cc(OCCCCNC(=O)COCCOCCOCC(=O)NCc3ccc(CNC(=O)CCSSCCC(=O)N(C)[C@@H](C)C(=O)O[C@H]4CC(=O)N(C)c5cc(cc(OC)c5Cl)C/C(C)=C/C=C\[C@@H](OC)[C@@]5(O)C[C@H](OC(=O)N5)[C@@H](C)[C@@H]5O[C@@]45C)cc3)c2)Cc2ccccn2)n1.O=[N+]([O-])[O-].O=[N+]([O-])[O-].O=[N+]([O-])[O-].O=[N+]([O-])[O-].[Zn+2].[Zn+2]" ?
Result: 640

Query: What do you get for "COc1cc2cc(c1Cl)N(C)C(=O)C[C@H](OC(=O)[C@H](C)N(C)C(=O)CCSSCCC(=O)NCc1ccc(CNC(=O)COCCOCCOCC(=O)N(CCCCOc3cc(CN(Cc4ccccn4)Cc4ccccn4)cc(CN(Cc4ccccn4)Cc4ccccn4)c3)Cc3ccc(-c4ccccc4)cc3)cc1)[C@]1(C)O[C@H]1[C@H](C)[C@@H]1C[C@@](O)(NC(=O)O1)[C@H](OC)/C=C\C=C(/C)C2.O=[N+]([O-])[O-].O=[N+]([O-])[O-].O=[N+]([O-])[O-].O=[N+]([O-])[O-].[Zn+2].[Zn+2]" ?
Result: 242

Query: What do you get for CCCCCC(=O)Nc1cccc(CN(Cc2cc(CN(Cc3ccccn3)Cc3cccc(NC(=O)CCCCC)n3)cc(OCCCCN(Cc3ccc(-c4ccccc4)cc3)C(=O)COCCOCCOCC(=O)NCc3ccc(CNC(=O)CCC(C)(C)SSCCC(=O)N(C)[C@@H](C)C(=O)O[C@H]4CC(=O)N(C)c5cc(cc(OC)c5Cl)C/C(C)=C/C=C\[C@@H](OC)[C@@]5(O)C[C@H](OC(=O)N5)[C@@H](C)[C@@H]5O[C@@]45C)cc3)c2)Cc2ccccn2)n1.O=[N+]([O-])[O-].O=[N+]([O-])[O-].O=[N+]([O-])[O-].O=[N+]([O-])[O-].[Zn+2].[Zn+2] [Compound 40b] ?
Result: 91

Data origin, for the record: paper PMC9574934
